Give measured IC50 for each item. Keep answers brief.
biological target: PxRDL1 (Plutella xylostella, UniProt C0L7I5); assay: two-electrode voltage clamp, Xenopus laevis oocytes
Sequence (C0L7I5 26-485): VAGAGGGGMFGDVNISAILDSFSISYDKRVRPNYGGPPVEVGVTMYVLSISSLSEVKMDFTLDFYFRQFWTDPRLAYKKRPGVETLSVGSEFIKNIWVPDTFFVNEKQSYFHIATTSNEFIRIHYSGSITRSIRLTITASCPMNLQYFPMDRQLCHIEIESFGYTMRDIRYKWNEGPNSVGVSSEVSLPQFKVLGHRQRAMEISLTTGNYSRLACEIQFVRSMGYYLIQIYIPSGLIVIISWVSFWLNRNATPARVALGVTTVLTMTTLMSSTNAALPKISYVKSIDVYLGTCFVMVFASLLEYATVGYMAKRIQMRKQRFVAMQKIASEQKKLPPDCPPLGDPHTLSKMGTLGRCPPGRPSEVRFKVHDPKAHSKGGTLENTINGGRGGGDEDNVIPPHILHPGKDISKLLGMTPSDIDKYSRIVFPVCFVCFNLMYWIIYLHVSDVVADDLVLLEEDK
One number for each entry, in nM.

COMPOUND	IC50 / nM
CON=CNC(=O)c1ccc(C2=NOC(c3cc(Cl)cc(Cl)c3)(C(F)(F)F)C2)cc1C (stereo not drawn) [fluxametamide]	20
Cc1cc(C2=NOC(c3cc(Cl)cc(Cl)c3)(C(F)(F)F)C2)ccc1C(=O)NCC(=O)NCC(F)(F)F (stereo not drawn) [fluralaner]	10

Continue with the next compound.
input: Dear colleague, I am looking for the recorded IC50 of the following compound: CCOC(=O)C1(C(=O)OCC)Nc2c([S+]([O-])C(F)(F)F)c(C#N)nn2-c2c(Cl)cc(C(F)(F)F)cc21 (stereo not drawn) [4a]
output: 2020

Provenance of the data: paper doi:10.1101/2021.03.24.436736v2
